All values here come from patent US9975853B2.

compounds and their reported melting point
measured.attribute: melting point

# compound, obs.value
records = [
    ("O=C(O)[C@@H]1c2ccccc2C(=O)N(c2ccc(F)cc2)[C@H]1c1ccc(F)cc1 (relative stereo) [trans-5e]", "116 to 118 °C"),
    ("O=C(O)C1c2ccccc2C(=O)N(c2ccccc2)C1c1ccccc1 (stereo not drawn) [trans-5a]", "226 to 229 °C"),
    ("COc1ccc(C2C(C(=O)O)c3ccccc3C(=O)N2c2ccc(OC)cc2)cc1 (stereo not drawn) [trans-5d]", "201 to 203 °C"),
    ("COc1ccc(C2C(C(=O)O)c3ccccc3C(=O)N2c2ccc(OC)cc2)cc1 (stereo not drawn) [cis-5d]", "232 to 233 °C"),
    ("COc1ccc([C@H]2[C@H](C(=O)O)c3ccccc3C(=O)N2c2ccc(Oc3ccccc3)cc2)cc1 (relative stereo) [trans-5h]", "109 to 115 °C"),
    ("COc1ccc(N2C(=O)c3ccccc3C(C(=O)O)C2c2ccccc2)cc1 (stereo not drawn) [trans-5c]", "106 to 118 °C"),
    ("O=C(O)[C@@H]1c2ccccc2C(=O)N(c2ccc(Cl)cc2)[C@H]1c1ccc(Cl)cc1 (relative stereo) [trans-5f]", "116 to 127 °C"),
    ("COc1ccc(N2C(=O)c3ccccc3C(C(=O)O)C2c2ccccc2)cc1 (stereo not drawn) [cis-5c]", "208 to 209 °C"),
    ("COc1ccc(C2C(C(=O)O)c3ccccc3C(=O)N2c2ccccc2)cc1 (stereo not drawn) [trans-5b]", "171 to 173 °C"),
]
